# Target Or Test System: Histone deacetylase 8 (Homo sapiens)
# Sequence (Q9BY41 whole entry): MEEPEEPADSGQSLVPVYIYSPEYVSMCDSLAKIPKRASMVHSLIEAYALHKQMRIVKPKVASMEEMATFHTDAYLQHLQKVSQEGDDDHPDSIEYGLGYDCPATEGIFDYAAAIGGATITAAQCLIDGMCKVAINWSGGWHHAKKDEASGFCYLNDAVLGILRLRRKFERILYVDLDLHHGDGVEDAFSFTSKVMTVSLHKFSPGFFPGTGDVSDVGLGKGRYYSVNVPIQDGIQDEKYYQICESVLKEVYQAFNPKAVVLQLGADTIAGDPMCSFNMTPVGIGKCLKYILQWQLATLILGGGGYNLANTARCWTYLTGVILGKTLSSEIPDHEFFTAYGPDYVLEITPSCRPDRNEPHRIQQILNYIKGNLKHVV
# Experimental Protocol: Inhibition of recombinant HDAC8 (unknown origin) expressed in Escherichia coli BL21(DE3) after 60 mins using trichostatin A by label-free mass spectrometry-based SAMDI assay
# strict inequality: IC50 < 2000 nM yields class 1, everything else yields class 0

// below: answered molecules
Chem Smiles: CC[C@H]1OC(=O)[C@@H](C)[C@H](O[C@@H]2C[C@](C)(OC)[C@@](O)(CN(C)Cc3ccc(-c4cn(CC(=O)NO)nn4)cc3)[C@@H](C)O2)[C@H](C)[C@H](O[C@H]2O[C@@H](C)C[C@@H](N(C)C)[C@@H]2O)[C@@](C)(O)C[C@H](C)CN(C)[C@@H](C)[C@H](O)[C@@]1(C)O
Discrete Label: class 0
--
Chem Smiles: CC[C@@H]1OC(=O)[C@H](C)[C@@H](O[C@H]2C[C@@](C)(OC)[C@](O)(CN(C)C)[C@H](C)O2)[C@@H](C)[C@@H](O[C@@H]2O[C@H](C)C[C@H](N(C)Cc3ccc(-c4cn(CCCCCC(=O)NO)nn4)cc3)[C@H]2O)[C@](C)(O)C[C@@H](C)CN(C)[C@H](C)[C@@H](O)[C@]1(C)O
Discrete Label: class 1
--
Chem Smiles: CC[C@@H]1OC(=O)[C@H](C)[C@@H](O[C@H]2C[C@@](C)(OC)[C@](O)(CN(C)Cc3ccc(-c4cn(CCC(=O)NO)nn4)cc3)[C@H](C)O2)[C@@H](C)[C@@H](O[C@@H]2O[C@H](C)C[C@H](N(C)C)[C@H]2O)[C@](C)(O)C[C@@H](C)CN(C)[C@H](C)[C@@H](O)[C@]1(C)O
Discrete Label: class 0
--
Chem Smiles: CC[C@@H]1OC(=O)[C@H](C)[C@@H](O[C@@H]2C[C@](C)(OC)[C@H](O)[C@@H](C)O2)[C@@H](C)[C@@H](O[C@@H]2O[C@H](C)C[C@H](N(C)Cc3ccccc3-c3cn(CCCCCC(=O)NO)nn3)[C@H]2O)[C@](C)(O)C[C@@H](C)CN(C)[C@H](C)[C@@H](O)[C@]1(C)O
Discrete Label: class 0
--
Chem Smiles: CC[C@@H]1OC(=O)[C@@H](C)[C@H](O[C@H]2C[C@@](C)(OC)[C@@H](O)[C@H](C)O2)[C@H](C)[C@H](O[C@@H]2O[C@H](C)C[C@H](N(C)Cc3ccc(-c4cn(CCC(=O)NO)nn4)cc3)[C@H]2O)[C@@](C)(OC)C[C@H](C)C(=O)[C@@H](C)[C@@H](O)[C@@]1(C)O
Discrete Label: class 0
--
Chem Smiles: CC[C@H]1OC(=O)[C@H](C)[C@@H](O[C@@H]2C[C@](C)(OC)[C@H](O)[C@@H](C)O2)[C@H](C)[C@@H](O[C@@H]2O[C@H](C)C[C@H](N(C)C)[C@H]2O)[C@@](C)(O)C[C@@H](C)CN(Cc2ccc(-c3cn(CCCC(=O)NO)nn3)cc2)[C@@H](C)[C@@H](O)[C@]1(C)O
Discrete Label: class 0

For CC[C@H]1OC(=O)[C@H](C)C(=O)[C@H](C)[C@@H](O[C@@H]2O[C@H](C)C[C@H](N(C)Cc3ccc(-c4cn(CCCCCCC(=O)NO)nn4)cc3)[C@H]2O)[C@@](C)(OC)C[C@@H](C)C2=NCCN3C(=O)O[C@@]1(C)[C@H]3[C@H]2C , is the recorded IC50 below the cut-off of 2000 nM?
class 1

---

# Target Or Test System: Histone deacetylase 1 (Homo sapiens, UniProt Q13547)
# Sequence (Q13547 whole entry): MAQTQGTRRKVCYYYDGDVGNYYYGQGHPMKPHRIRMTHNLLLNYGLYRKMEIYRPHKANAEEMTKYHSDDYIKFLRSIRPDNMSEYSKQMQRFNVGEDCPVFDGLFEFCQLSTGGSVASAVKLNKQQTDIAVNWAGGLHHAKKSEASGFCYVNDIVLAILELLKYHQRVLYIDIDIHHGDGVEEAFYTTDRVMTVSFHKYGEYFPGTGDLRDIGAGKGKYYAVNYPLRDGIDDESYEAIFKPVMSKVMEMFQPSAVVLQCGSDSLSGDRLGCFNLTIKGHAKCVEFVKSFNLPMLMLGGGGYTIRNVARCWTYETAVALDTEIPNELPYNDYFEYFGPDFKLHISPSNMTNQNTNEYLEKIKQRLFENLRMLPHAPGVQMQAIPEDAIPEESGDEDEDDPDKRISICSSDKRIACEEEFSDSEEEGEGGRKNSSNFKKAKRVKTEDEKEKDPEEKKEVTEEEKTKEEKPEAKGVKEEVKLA
# Experimental Protocol: Inhibition of recombinant HDAC1 (unknown origin) expressed in Escherichia coli BL21(DE3) after 60 mins using trichostatin A by label-free mass spectrometry-based SAMDI assay
Recorded pIC50, one value per entry.
Field pIC50 (float): negative decimal logarithm of the concentration in molar.

Molecule: CC[C@H]1OC(=O)[C@@H](C)[C@H](O[C@H]2C[C@@](C)(OC)[C@@H](O)[C@H](C)O2)[C@H](C)[C@H](O[C@H]2O[C@@H](C)C[C@@H](N(C)Cc3ccc(-c4cn(CCCCCC(=O)NO)nn4)cc3)[C@@H]2O)[C@@](C)(O)C[C@H](C)CN(C)[C@@H](C)[C@H](O)[C@@]1(C)O (stereo in doubt)
pIC50: 6.50

Here is the next item to consider.
Sample CC[C@@H]1OC(=O)[C@H](C)[C@@H](O[C@H]2C[C@@](C)(OC)[C@](O)(CN(C)C)[C@H](C)O2)[C@@H](C)[C@@H](O[C@@H]2O[C@H](C)C[C@H](N(C)Cc3ccc(-c4cn(CCCCCC(=O)NO)nn4)cc3)[C@H]2O)[C@](C)(O)C[C@@H](C)CN(C)[C@H](C)[C@@H](O)[C@]1(C)O — what was its pIC50?
6.80

---

# Target Or Test System: UniProtKB Q13547
# Experimental Protocol: Inhibition of recombinant HDAC1 (unknown origin) expressed in Escherichia coli BL21(DE3) after 60 mins using trichostatin A by label-free mass spectrometry-based SAMDI assay
Readout Kind: IC50 (µM)
Expressed in µM, but write only the number.

For orientation, consider the following solved cases.
Chem Smiles: CC[C@H]1OC(=O)[C@H](C)[C@@H](O[C@@H]2C[C@](C)(OC)[C@H](O)[C@@H](C)O2)[C@H](C)[C@@H](O[C@@H]2O[C@H](C)C[C@H](N(C)C)[C@H]2O)[C@@](C)(O)C[C@@H](C)CN(Cc2ccc(-c3cn(CCCCCC(=O)NO)nn3)cc2)[C@@H](C)[C@@H](O)[C@]1(C)O
Target Or Test System: UniProtKB Q13547
Quantity Unit: µM
IC50: 0.145
--
Chem Smiles: CC[C@H]1OC(=O)[C@H](C)C(=O)[C@H](C)[C@@H](O[C@@H]2O[C@H](C)C[C@H](N(C)Cc3ccc(-c4cn(CCCCC(=O)NO)nn4)cc3)[C@H]2O)[C@@](C)(OC)C[C@@H](C)C2=NCCN3C(=O)O[C@@]1(C)[C@H]3[C@H]2C
Target Or Test System: UniProtKB Q13547
Quantity Unit: µM
IC50: 0.269
--
Chem Smiles: CC[C@@H]1OC(=O)[C@@H](C)[C@H](O[C@@H]2C[C@](C)(OC)[C@@](O)(CN(C)C)[C@@H](C)O2)[C@H](C)[C@H](O[C@@H]2O[C@H](C)C[C@H](N(C)Cc3ccc(-c4cn(CCCCCC(=O)NO)nn4)cc3)[C@H]2O)[C@@](C)(OC)C[C@H](C)C(=O)[C@@H](C)[C@@H](O)[C@@]1(C)O
Target Or Test System: UniProtKB Q13547
Quantity Unit: µM
IC50: 0.201

Please turn your attention to the following entry.
Request the reported IC50 associated with CC[C@@H]1OC(=O)[C@H](C)[C@@H](O[C@@H]2C[C@](C)(OC)[C@H](O)[C@@H](C)O2)[C@@H](C)[C@@H](O[C@@H]2O[C@H](C)C[C@H](N(C)Cc3cccc(-c4cn(CCCCCC(=O)NO)nn4)c3)[C@H]2O)[C@](C)(O)C[C@@H](C)CN(C)[C@H](C)[C@@H](O)[C@]1(C)O
0.109

Value source: ChEMBL document CHEMBL3734738
